- Tested on: P31-FUJ (Acute Myeloid Leukemia)
- assay.details: combination Emax (second highest fraction inhibited in the dose matrix, 72 h); higher = more inhibition; extreme values may be limits of the assay
measure: combination Emax

Query string: Form field: reported combination Emax of C[C@@H](Nc1cc(F)cc(F)c1)c1cc(C(=O)N(C)C)cc2c(=O)cc(N3CCOCC3)oc12 [AZD8186] + CC(=O)c1c(C)c2cnc(Nc3ccc(N4CCNCC4)cn3)nc2n(C2CCCC2)c1=O [Palbociclib] (first compound max 10 µM, 7x7, partner max 10 µM)
Result string: 0.277

###

- Test system: ETK-1 (Biliary Tract Carcinoma);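 further: after 72 h of two-drug dosing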
- assay.details: Bliss excess, mean over the matrix (fraction); higher = more synergy
Bliss excess values by entry

molecule	tested.target	Bliss excess
Cc1c2c(nn1C)CSCc1cc(n(C)n1)CSc1cc(c3ccccc3c1)OCCCc1c(C(=O)O)n(C)c3c-2c(Cl)ccc13 [AZD5991] + CCN(CCO)CCCOc1ccc2c(Nc3cc(CC(=O)Nc4cccc(F)c4)[nH]n3)ncnc2c1 [AZD2811] (first compound max 1 µM, 7x7, partner max 1 µM)	ETK-1 (Biliary Tract Carcinoma)	-0.0018
NC1(C(=O)N[C@@H](CCO)c2ccc(Cl)cc2)CCN(c2ncnc3[nH]ccc23)CC1 [Capivasertib] + COc1nnc2ccc(N3CCC(c4ccc(OCCN5CCN(C)C(=O)[C@H]5C)cc4)CC3)nn12 [AZD5153] (first compound max 10 µM, 7x7, partner max 1 µM)	ETK-1 (Biliary Tract Carcinoma)	0.0486

// moving on: another record for Bliss excess
Query string: Form field: reported Bliss excess of Cc1c2c(nn1C)CSCc1cc(n(C)n1)CSc1cc(c3ccccc3c1)OCCCc1c(C(=O)O)n(C)c3c-2c(Cl)ccc13 [AZD5991] + Cc1cc2ncnn2cc1Nc1ncc2c(n1)n(C1CCOCC1)c(=O)n2C [AZD7648] (first compound max 1 µM, 7x7, partner max 10 µM)
Result string: -0.0466

Reference for the values: the supplement of paper PMC11061612
